target: UniProt:P78329; experiment: Inhibition test against 20-HETE producing enzyme CYP4F2 (luciferine derivative, luminescence); format: biochemical; conditions: human CYP4F2, luciferine derivative, luminescence
experimental.endpoint: IC50 (nM)

Sure, the documented IC50 for CC(=O)N1CCC(CCCCCCCCOc2ccc(-c3ccn[nH]3)nc2)(C(=O)O)C1 (centres unmarked) [Example 72-9] is 18

Sure, the documented IC50 for CN(C(=O)c1cccc(COc2ccc(-c3ccn[nH]3)nc2)c1)S(C)(=O)=O [Example 44-2] is 73

Sure, the documented IC50 for O=C(O)C1CC1c1cccc(COc2ccc(-c3ccn[nH]3)nc2)c1F (single isomer, unassigned) [Example 71-46] is 240

Sure, the documented IC50 for O=C(O)CC1CCN(C(=O)c2cccc(COc3ccc(-c4ccn[nH]4)nc3)c2)CC1 [Example 45-30] is 4000

Sure, the documented IC50 for O=C(O)/C=C/c1cccc(COc2ccc(-c3ccn[nH]3)nc2)c1F [Example 70-1] is 49

[I] CC[C@@H](OCCCCCCCOc1ccc(-c2ccn[nH]2)nc1)C(=O)O [Example 71-2-1]
[II] O=C(O)C1(CCCCCCCCOc2ccc(-c3ccn[nH]3)nc2)CCCO1 (centres unmarked) [Example 72-5]
stdin: Task for the reader: decide whether I or II has the larger IC50. Return value: the label identifying the chosen record.
stdout: I
(I: 300 nM, II: 43 nM)

[A] O=C(NCC1(C(=O)O)CC1)c1cccc(COc2ccc(-c3ccn[nH]3)nc2)c1 [Example 45-4]
[B] O=C(O)C1CC1c1cc(CCOc2ccc(-c3ccn[nH]3)nc2)ccc1F (centres unmarked) [Example 74-2]
[C] NC(=O)c1cc(COc2ccc(-c3ccn[nH]3)nc2)ccn1 [Example 44-7]
[D] O=C(CCc1cccc(COc2ccc(-c3ccn[nH]3)nc2)c1)N1CC(O)C1 [Example 43-10]
[E] O=C(O)C1(CCCCCCCCOc2ccc(-c3ccn[nH]3)nc2)CCS(=O)(=O)CC1 [Example 72-6]
stdin: Put these in order: smallest IC50 first, largest last. Record the ranking as a list of labels in the requested order.
stdout: E, C, B, D, A
(E: 9.4 nM, C: 85 nM, B: 130 nM, D: 190 nM, A: 6400 nM)

###

target: human CYP4A11 (Homo sapiens (Human)); experiment: Inhibition test against 20-HETE producing enzyme CYP4A11 (luciferine derivative, luminescence); assay type: biochemical; conditions: human CYP4A11, luciferine derivative, luminescence
experimental.endpoint: IC50 (µM)

Sure, the documented IC50 for O=C(N[C@H]1C[C@H](C(=O)O)C1)c1cccc(COc2ccc(-c3ccn[nH]3)nc2)c1 is 0.097

[A] CC(C)(Oc1cccc(CCOc2ccc(-c3ccn[nH]3)nc2)c1)C(=O)O
[B] O=C(O)C1CC1c1cccc(CCOc2ccc(-c3ccn[nH]3)nc2)c1 (centres unmarked)
[C] O=C(O)C1(CCCCCCCCOc2ccc(-c3ccn[nH]3)nc2)CS(=O)(=O)C1
stdin: Put these in order: smallest IC50 first, largest last. Record the ranking as a list of labels in the requested order.
stdout: B, C, A

###

molecular target: human CYP4A11 (Homo sapiens (Human), UniProt Q02928); experiment: Inhibition test against 20-HETE producing enzyme CYP4A11 (luciferine derivative, luminescence); format: biochemical; details: E. coli membrane fraction expressing human CYP4A11, 60 μM luciferine derivative, room temperature 60 minutes
Sequence (Q02928 5-519): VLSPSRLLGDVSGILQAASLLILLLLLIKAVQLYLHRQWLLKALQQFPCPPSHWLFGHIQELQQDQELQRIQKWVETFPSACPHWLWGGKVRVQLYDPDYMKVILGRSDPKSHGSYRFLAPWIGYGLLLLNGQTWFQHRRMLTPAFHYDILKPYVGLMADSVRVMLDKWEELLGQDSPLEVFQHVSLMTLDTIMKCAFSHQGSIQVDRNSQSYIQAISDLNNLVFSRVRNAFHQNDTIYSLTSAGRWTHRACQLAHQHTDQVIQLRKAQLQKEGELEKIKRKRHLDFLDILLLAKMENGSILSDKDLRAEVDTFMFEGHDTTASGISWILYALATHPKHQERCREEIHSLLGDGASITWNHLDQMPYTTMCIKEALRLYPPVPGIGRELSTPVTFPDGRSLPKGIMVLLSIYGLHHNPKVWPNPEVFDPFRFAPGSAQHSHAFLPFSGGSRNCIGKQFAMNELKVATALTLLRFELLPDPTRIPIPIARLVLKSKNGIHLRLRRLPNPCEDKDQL
pIC50: −log10 of the molar value.
experimental.endpoint: pIC50

Sure, the documented pIC50 for CN(C)C(=O)N1CCC(O)(c2cccc(COc3ccc(-c4ccn[nH]4)nc3)c2)CC1 [Example 51-2] is 6.51

Sure, the documented pIC50 for O=C(O)c1ccnc(-c2cccc(COc3ccc(-c4ccn[nH]4)nc3)c2)n1 [Example 22-6] is 6.96

[A] O=C(O)CCCCCCCCCOc1ccc(-c2ccn[nH]2)nc1 [Example 1-52]
[B] O=C(O)C1CCN(S(=O)(=O)c2cccc(COc3ccc(-c4ccn[nH]4)nc3)c2)C1 (stereo not drawn) [Example 22-10]
[C] NS(=O)(=O)c1cccc(C(=O)N2CCC[C@@H](COc3ccc(-c4ccn[nH]4)nc3)C2)c1 [Example 41-1]
[D] O=C(O)c1cccc(CCCCOc2ccc(-c3ccn[nH]3)nc2)c1 [Example 1-19]
[E] CC(=O)N1CCC(CCCCCCCOc2ccc(-c3ccn[nH]3)nc2)(C(=O)O)CC1 [Example 3-8]
stdin: Rank descending by pIC50. Record the ranking as a list of labels in the requested order.
stdout: D, B, A, C, E
(D: 8.02, B: 7.62, A: 7.36, C: 6.60, E: 5.92)

[1] O=C(O)COc1ccc(COc2ccc(-c3ccn[nH]3)nc2)cc1 [Example 8-9]
[2] O=C(O)CCCc1ccc(COc2ccc(-c3ccn[nH]3)nc2)cc1 [Example 30-2]
[3] CNC(=O)Cc1cccc(COc2ccc(-c3ccn[nH]3)nc2)c1 [Example 42-4]
stdin: Rank descending by pIC50. Record the ranking as a list of labels in the requested order.
stdout: 1, 2, 3

[I] O=C(O)Cc1cccc(CCCOc2ccc(-c3ccn[nH]3)nc2)c1 [Example 32-1]
[II] CCCNC(=O)Cc1cccc(COc2ccc(-c3ccn[nH]3)nc2)c1 [Example 42-6]
stdin: Task for the reader: decide whether I or II has the larger pIC50. Return value: the label identifying the chosen record.
stdout: I

[a] CCC(CC)(CCCCOc1ccc(-c2ccn[nH]2)nc1)C(=O)O [Example 1-64]
[b] CC(C)(C(=O)O)n1cc(CCCCOc2ccc(-c3ccn[nH]3)nc2)cn1 [Example 8-13]
stdin: Task for the reader: decide whether a or b has the larger pIC50. Return value: the label identifying the chosen record.
stdout: a
(a: 7.55, b: 6.92)

###

molecular target: human CYP4F2 (Homo sapiens (Human)); assay: Inhibition test against 20-HETE producing enzyme CYP4F2 (luciferine derivative, luminescence); assay type: biochemical; conditions: E. coli membrane fraction expressing human CYP4F2, 2.5 μM luciferine derivative, room temperature 60 minutes
Sequence (P78329 5-520): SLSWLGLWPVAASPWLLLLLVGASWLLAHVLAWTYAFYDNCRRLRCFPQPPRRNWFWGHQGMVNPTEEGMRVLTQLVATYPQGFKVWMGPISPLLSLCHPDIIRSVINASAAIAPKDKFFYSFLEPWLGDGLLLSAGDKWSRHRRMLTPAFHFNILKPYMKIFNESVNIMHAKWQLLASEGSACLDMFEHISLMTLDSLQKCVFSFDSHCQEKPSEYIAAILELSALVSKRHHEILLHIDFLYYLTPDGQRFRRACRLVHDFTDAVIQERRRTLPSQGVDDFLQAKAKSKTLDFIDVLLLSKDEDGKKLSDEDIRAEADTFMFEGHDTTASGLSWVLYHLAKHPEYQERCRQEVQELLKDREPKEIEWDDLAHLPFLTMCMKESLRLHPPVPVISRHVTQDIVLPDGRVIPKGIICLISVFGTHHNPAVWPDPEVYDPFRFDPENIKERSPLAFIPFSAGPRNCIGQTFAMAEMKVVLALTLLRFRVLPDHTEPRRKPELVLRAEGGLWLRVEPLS
pIC50: −log10 of the molar value.
experimental.endpoint: pIC50

Some solved cases for reference:
Sure, the documented pIC50 for Oc1cc(COc2ccc(-c3ccn[nH]3)nc2)ccc1F [Example 12-2] is 7.96

Sure, the documented pIC50 for CC(C)(CCCCCOc1ccc(-c2ccn[nH]2)nc1)C(=O)O [Example 1-43] is 4.74

Sure, the documented pIC50 for O=C(O)C12CCC(CCCOc3ccc(-c4ccn[nH]4)nc3)(CC1)CC2 [Example 1-30] is 5.39

Sure, the documented pIC50 for O=C(O)c1ccccc1-c1cccc(COc2ccc(-c3ccn[nH]3)nc2)c1 [Example 8-4] is 5.37

Sure, the documented pIC50 for O=C(O)CCC(=O)N1CCC[C@@H](COc2ccc(-c3ccn[nH]3)nc2)C1 [Example 1-24] is 4.82

[I] O=C(O)C1CCCN(S(=O)(=O)c2cccc(COc3ccc(-c4ccn[nH]4)nc3)c2)C1 (stereo not drawn) [Example 22-9]
[II] CC(=O)N1CCC(CCCCCCOc2ccc(-c3ccn[nH]3)nc2)(C(=O)O)C1 (stereo not drawn) [Example 3-6]
stdin: Task for the reader: decide whether I or II has the larger pIC50. Return value: the label identifying the chosen record.
stdout: I

###

target: human CYP4A11 (Homo sapiens (Human)); assay: Inhibition test against 20-HETE producing enzyme CYP4A11 (luciferine derivative, luminescence); format: biochemical; details: E. coli membrane fraction expressing human CYP4A11, 60 μM luciferine derivative, room temperature 60 minutes
experimental.endpoint: IC50 (nM)

Sure, the documented IC50 for O=C(O)CCCCCCCOc1ccc(-c2ccn[nH]2)nc1 is 44

Sure, the documented IC50 for OC1(c2cccc(COc3ccc(-c4ccn[nH]4)nc3)c2)CCC1 is 120

Sure, the documented IC50 for COC(=O)N1CCC(O)(c2cccc(COc3ccc(-c4ccn[nH]4)nc3)c2)CC1 is 270

Sure, the documented IC50 for NS(=O)(=O)CCCC(=O)N1CCC[C@@H](COc2ccc(-c3ccn[nH]3)nc2)C1 is 440

Sure, the documented IC50 for CC(C)(OCCCCOCCCCOc1ccc(-c2ccn[nH]2)nc1)C(=O)O is 1800

[I] O=C(O)C12CC(C(=O)N3CCC[C@@H](COc4ccc(-c5ccn[nH]5)nc4)C3)(C1)C2
[II] O=C(CCc1cccc(COc2ccc(-c3ccn[nH]3)nc2)c1)NCCO
[III] O=C(O)C12CCC(COc3ccc(-c4ccn[nH]4)nc3)(CC1)CC2
stdin: Rank descending by IC50. Record the ranking as a list of labels in the requested order.
stdout: I, II, III
(I: 1500 nM, II: 100 nM, III: 52 nM)

[P] O=C(O)Cc1cccc(OCCOc2ccc(-c3ccn[nH]3)nc2)c1
[Q] COc1ccc(COc2ccc(-c3ccn[nH]3)nc2)cc1C(=O)O
[R] OC(Cc1cccc(COc2ccc(-c3ccn[nH]3)nc2)c1)C(F)(F)F (stereo not drawn)
[S] OCC(F)(F)c1cccc(COc2ccc(-c3ccn[nH]3)nc2)c1
[T] O=C1CN(CCCCOc2ccc(-c3ccn[nH]3)nc2)C(=O)N1
stdin: Rank descending by IC50. Record the ranking as a list of labels in the requested order.
stdout: Q, T, R, P, S

Just for reference, patent US11365192B2 is where these values come from.
